STUDY TARGET: native mouse MET on living cells (mouse, UniProt P16056 25-1379)
METHOD: cell-based or functional assay
One threshold, 60%, splits the recorded protection from staurosporine, viability EMAX, MLP29 cells values: lower ones are Criterion met, equal or higher ones are Criterion not met.

In: Is protection from staurosporine, viability EMAX, MLP29 cells strictly under 60% for the entry 76G7 chimeric llama-human IgG1 mAb (antibody, V domains shown, llama VH on human IgG1 CH1-CH2-CH3, llama VL on human lambda CL) VH: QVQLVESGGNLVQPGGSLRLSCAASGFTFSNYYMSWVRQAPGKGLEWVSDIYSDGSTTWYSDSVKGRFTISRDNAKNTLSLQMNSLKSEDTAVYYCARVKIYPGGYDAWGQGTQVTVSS VL: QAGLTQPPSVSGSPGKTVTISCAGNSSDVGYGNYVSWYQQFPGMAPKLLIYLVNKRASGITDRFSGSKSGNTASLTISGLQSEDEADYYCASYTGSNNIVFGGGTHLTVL ?
Out: Criterion met

In: Also check 71G3 chimeric llama-human IgG1 mAb (antibody, V domains shown, llama VH on human IgG1 CH1-CH2-CH3, llama VL on human lambda CL) VH: QVQLVESGGGLVQPGGSLRVSCAASGFTFSTYYMSWVRQAPGKGLEWVSDIRTDGGTYYADSVKGRFTMSRDNAKNTLYLQMNSLKPEDTALYYCARTRIFPSGYDYWGQGTQVTVSS VL: QAVVTQEPSLSVSPGGTVTLTCGLSSGSVTTSNYPGWFQQTPGQAPRTLIYNTNSRHSGVPSRFSGSISGNKAALTIMGAQPEDEADYYCSLYPGSTTVFGGGTHLTVL
Out: Criterion not met

In: Also check 71D4 chimeric llama-human IgG1 mAb (antibody, V domains shown, llama VH on human IgG1 CH1-CH2-CH3, llama VL on human lambda CL) VH: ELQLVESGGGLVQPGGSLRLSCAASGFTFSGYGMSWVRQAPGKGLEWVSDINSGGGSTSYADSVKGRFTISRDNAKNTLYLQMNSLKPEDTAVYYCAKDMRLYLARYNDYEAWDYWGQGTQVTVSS VL: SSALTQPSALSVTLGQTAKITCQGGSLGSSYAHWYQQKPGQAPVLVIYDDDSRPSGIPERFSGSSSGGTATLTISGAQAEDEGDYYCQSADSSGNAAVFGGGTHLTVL
Out: Criterion met

In: Also check 71C3 chimeric llama-human IgG1 mAb (antibody, V domains shown, llama VH on human IgG1 CH1-CH2-CH3, llama VL on human lambda CL) VH: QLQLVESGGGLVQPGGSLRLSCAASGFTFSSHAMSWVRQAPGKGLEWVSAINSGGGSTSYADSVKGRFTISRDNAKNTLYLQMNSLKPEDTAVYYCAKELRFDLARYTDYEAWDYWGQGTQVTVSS VL: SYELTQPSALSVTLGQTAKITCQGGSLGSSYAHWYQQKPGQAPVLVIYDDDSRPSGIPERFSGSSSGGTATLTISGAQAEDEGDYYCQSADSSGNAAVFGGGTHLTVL
Out: Criterion met

In: Also check 72F8 chimeric llama-human IgG1 mAb (antibody, V domains shown, llama VH on human IgG1 CH1-CH2-CH3, llama VL on human lambda CL) VH: ELQLVESGGGLVQPGGSLRLSCAASGFTFSNYVMSWVRQAPGKGLEWVSDTNSGGSTSYADSVKGRFTISRDNAKNTLYLQMNSLKPEDTALYYCARSFFYGMNYWGKGTQVTVSS VL: QSALTQPPSLSASPGSSVRLTCTLSSGNNIGSYDISWYQQKAGSPPRYLLNYYTDSRKHQDSGVPSRFSGSKDASANAGLLLISGLQPEDEADYYCSAYKSGSYRWVFGGGTHVTVL
Out: Criterion met

In: Also check 76H10 chimeric llama-human IgG1 mAb (antibody, V domains shown, llama VH on human IgG1 CH1-CH2-CH3, llama VL on human lambda CL) VH: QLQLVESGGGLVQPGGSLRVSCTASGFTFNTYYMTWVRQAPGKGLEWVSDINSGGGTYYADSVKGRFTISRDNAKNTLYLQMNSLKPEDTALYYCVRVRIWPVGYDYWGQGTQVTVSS VL: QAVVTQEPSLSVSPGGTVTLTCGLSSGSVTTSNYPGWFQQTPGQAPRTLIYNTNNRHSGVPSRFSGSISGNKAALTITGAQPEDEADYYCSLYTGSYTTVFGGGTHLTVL
Out: Criterion met

In: Also check 71A3 chimeric llama-human IgG1 mAb (antibody, V domains shown, llama VH on human IgG1 CH1-CH2-CH3, llama VL on human lambda CL) VH: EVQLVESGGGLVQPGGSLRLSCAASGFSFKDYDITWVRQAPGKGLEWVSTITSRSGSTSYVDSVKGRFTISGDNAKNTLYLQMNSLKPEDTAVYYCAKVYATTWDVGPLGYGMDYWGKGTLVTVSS VL: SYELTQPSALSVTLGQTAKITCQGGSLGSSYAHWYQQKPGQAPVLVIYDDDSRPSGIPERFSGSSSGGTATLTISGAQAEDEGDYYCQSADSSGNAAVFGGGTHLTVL
Out: Criterion not met

In: Also check 71D6 chimeric llama-human IgG1 mAb (antibody, V domains shown, llama VH on human IgG1 CH1-CH2-CH3, llama VL on human lambda CL) VH: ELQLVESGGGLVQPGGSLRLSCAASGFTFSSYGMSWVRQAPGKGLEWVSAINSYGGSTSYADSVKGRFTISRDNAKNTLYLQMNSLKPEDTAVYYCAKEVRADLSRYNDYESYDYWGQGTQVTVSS VL: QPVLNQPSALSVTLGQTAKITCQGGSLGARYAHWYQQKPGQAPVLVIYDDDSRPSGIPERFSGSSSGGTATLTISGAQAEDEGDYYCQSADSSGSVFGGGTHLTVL
Out: Criterion not met

In: Also check 71G12 chimeric llama-human IgG1 mAb (antibody, V domains shown, llama VH on human IgG1 CH1-CH2-CH3, llama VL on human kappa CL) VH: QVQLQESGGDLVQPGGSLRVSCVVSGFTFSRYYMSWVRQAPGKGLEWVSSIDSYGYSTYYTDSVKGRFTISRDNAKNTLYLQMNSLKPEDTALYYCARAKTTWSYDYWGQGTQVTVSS VL: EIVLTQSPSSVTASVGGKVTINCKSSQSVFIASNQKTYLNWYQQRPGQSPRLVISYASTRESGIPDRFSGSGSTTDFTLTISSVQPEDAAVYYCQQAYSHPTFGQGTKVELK
Out: Criterion met

In: Also check 74C8 chimeric llama-human IgG1 mAb (antibody, V domains shown, llama VH on human IgG1 CH1-CH2-CH3, llama VL on human lambda CL) VH: EVQLVESGGGLVQPGGSLRLSCAASGFTFRNYHMSWVRQVPGKGFEWISDINSAGGSTYYADSVKGRFTISRDNAKNTLYLEMNSLKPEDTALYYCARVNVWGVNYWGKGTLVSVSS VL: QTVVTQEPSLSVSPGGTVTLTCGLSSGSVTTSNYPGWFQQTPGQAPRTLIYNTNSRHSGVPSRFSGSISGNKAALTITGAQPEDEADYYCSLYPGSYTNVFGGGTHLTVL
Out: Criterion met
